# protocol-text: Cytotoxicity vs. murine splenic lymphocytes
# Type: cell-based
# condition-summary: mouse
quantity-kind: IC50 (µM)
# value in µM; strip the unit string

Documented IC50 of "CC(C)(C)NCCCNc1c(-c2ccc(OC(F)(F)F)cc2)cnc2cc(Cl)ccc12" : 4.98

====

# System: P. falciparum strain D6
# protocol-text: Antiplasmodial fluorescence-based SyBr Green assay, strain D6
# Format: cell-based, Plasmodium falciparum
# condition-summary: Plasmodium falciparum, D6; read-out: IC50 Values (nM) Strain D6
Known log10 IC50 of a selection of compounds
In plain terms, each number is the log10 of measured IC50 in nM.

Here's what some known entries look like.
[
  {
    "compound": "CC(C)(C)NCCCNc1c(-c2ccc(OC(F)F)cc2)cnc2cc(Cl)ccc12",
    "log10 IC50": 0.38
  },
  {
    "compound": "CCN(CC)CCCC(C)Nc1c(-c2ccc(OC(F)(F)F)cc2)cnc2cc(Cl)ccc12 (stereo not drawn)",
    "log10 IC50": 0.54
  }
]

Query "CC(C)(C)NCCCNc1c(-c2ccc(OC(F)(F)F)cc2)cnc2cc(Cl)ccc12" yields log10 IC50 of -0.05
